# IC50 annotations
# Tested on: PC-3
# Test details: MTT assay for cell cytotoxicity
# Type: cell-based, human
# Experimental setup: 72 h, at least three independent experiments, read-out: MTT assay (IC50 ± SD) PC-3
Answer in µM, number only, no unit symbol.

Examples from the recorded data:
Req: Output measured IC50 for this item: O=c1c2cc(Cl)ccc2sc2c(NCCCCCO)nc3ccccc3c12
Resp: 8.38

Req: State its IC50 for this compound: O=c1c2cc(Cl)ccc2sc2c(NCCO)nc3ccccc3c12
Resp: 7.48

Attention now turns to another entry.
Req: // fetch IC50 given entry O=c1c2cc(Cl)ccc2sc2c(NCCCO)nc3ccccc3c12
Resp: 6.31
